- Test system: Lemna minor
- ASSAY: Herbicide activity on Lemna minor in vitro, fresh weight reduction after one week
- Assay type: in vivo
- COND: fresh weight reduction compared to untreated plants, 7-day exposure, all chemicals 10 mg/L
PROPERTY_MEASURED: Herbicide activity
For clarity, give the value followed by its unit.

Hello, I am looking for reported Herbicide activity with Lemna minor for COC(=O)c1cccc(C)c1S(=O)(=O)NC(=O)Nc1nc(OCC(F)(F)F)nc(N(C)C)n1 [Triflusulfuron-methyl] . Could you help? 34%

Next compound: CCOC1Oc2ccc(OS(C)(=O)=O)cc2C1(C)C (stereo not shown) [Ethofumesate] 0%

Also need CCCC(=NOCC(C)Oc1ccc(Cl)cc1)C1=C(O)CC(C2CCCSC2)CC1=O (stereo not shown) [Profoxydim] , thanks. 45%

Same thing, different compound: COC(=O)Nc1cccc(OC(=O)Nc2cccc(C)c2)c1 [Phenmedipham] 3%
